Test system: Mirococcus luteus 9341
experimental-readout: MIC (µg/mL)

[[record]]
molecule = "NC1C=CCC2CN(c3ccc4c(=O)c(C(=O)O)cn(C5CC5)c4c3Cl)CC12 (centres unmarked)"
system = "Mirococcus luteus 9341"
experimental_readout = "MIC"
readout_value = 0.03


a. CC1C=CC(N)C2CN(c3ccc4c(=O)c(C(=O)O)cn(C5CC5)c4c3Cl)CC12 (centres unmarked)
b. NC1CCN(c2ccc3c(=O)c(C(=O)O)cn(C4CC4)c3c2F)C1 (centres unmarked) [Reference, reference compound]
Which of these two has the smaller recorded MIC: a or b ? Give the label of your selection.
a
(a: 0.06 µg/mL, b: 0.5 µg/mL)

P. NC1C=CCC2CN(c3ccc4c(=O)c(C(=O)O)cn(C5CC5)c4c3F)CC12 (centres unmarked)
Q. CC1C=CC(N)C2CN(c3ccc4c(=O)c(C(=O)O)cn(C5CC5)c4c3F)CC12 (centres unmarked)
Lab notebook, comparison: P versus Q , higher MIC goes to which? Give the label of your selection.
Q

###

Tested on: Staphylococcus aureus 1756
measurement-description: MIC, serial dilution test on Iso-sensitest agar
Type: cell-based
test-context: 37° C., approx. 20 hours, approx. 10^4 CFU per inoculation point
Description: The minimum inhibitory concentrations (MIC) were determined by the serial dilution test on Iso-sensitest agar (Oxoid). For each test substance, a series of agar plates was prepared which contained concentrations of the active substance which decreased at a rate of in each case twice the dilution factor. […] The MIC value (μg/ml) indicates the lowest active compound concentration at which no growth could be detected by the naked eye.
experimental-readout: MIC (µg/mL)

[[record]]
compound = "NC1C=CCC2CN(c3ccc4c(=O)c(C(=O)O)cn(C5CC5)c4c3F)CC12 (centres unmarked) [Example 20]"
experimental_readout = "MIC"
readout_value = 0.015


I. CC1C=CC(N)C2CN(c3ccc4c(=O)c(C(=O)O)cn(C5CC5)c4c3F)CC12 (centres unmarked) [Example 21]
II. CC1C=CC(N)C2CN(c3ccc4c(=O)c(C(=O)O)cn(C5CC5)c4c3Cl)CC12 (centres unmarked) [Example 8]
III. NC1CCN(c2ccc3c(=O)c(C(=O)O)cn(C4CC4)c3c2F)C1 (centres unmarked) [Reference, reference compound]
IV. NC1C=CCC2CN(c3ccc4c(=O)c(C(=O)O)cn(C5CC5)c4c3Cl)CC12 (centres unmarked) [Example 7]
Sort the 4 compounds by MIC; largest first, smallest last. Give the labels in the order requested.
III, I, II, IV
(III: 0.125 µg/mL, I: 0.015 µg/mL, II: 0.0078 µg/mL, IV: 0.0039 µg/mL)

###

Test system: E. coli 455/7
measurement-description: MIC, serial dilution test on Iso-sensitest agar
Type: cell-based
test-context: Escherichia coli, 37° C., approx. 20 hours, approx. 10^4 CFU per inoculation point
experimental-readout: MIC (µg/mL)

[[record]]
molecule = "CC1C=CC(N)C2CN(c3ccc4c(=O)c(C(=O)O)cn(C5CC5)c4c3F)CC12 (centres unmarked)"
experimental_readout = "MIC"
readout_value = 0.5

[[record]]
molecule = "NC1C=CCC2CN(c3ccc4c(=O)c(C(=O)O)cn(C5CC5)c4c3F)CC12 (centres unmarked)"
experimental_readout = "MIC"
readout_value = 1

[[record]]
molecule = "NC1C=CCC2CN(c3ccc4c(=O)c(C(=O)O)cn(C5CC5)c4c3Cl)CC12 (centres unmarked)"
experimental_readout = "MIC"
readout_value = 0.5


a. NC1CCN(c2ccc3c(=O)c(C(=O)O)cn(C4CC4)c3c2F)C1 (centres unmarked) [Reference, reference compound]
b. CC1C=CC(N)C2CN(c3ccc4c(=O)c(C(=O)O)cn(C5CC5)c4c3Cl)CC12 (centres unmarked)
Lab notebook, comparison: a versus b , higher MIC goes to which? Give the label of your selection.
a
(a: 1 µg/mL, b: 0.5 µg/mL)
